This collection of values is drawn from ChEMBL document CHEMBL1134970.

# Test system: CCRF-CEM
# TEST: Inhibitory concentration against T-cell proliferation response in a CEM cell line (BMS-337197,CEM)
# Assay type: functional, cell-based
# STUDY CONDITIONS: Homo sapiens
ASSAY METRIC: IC50 (nM)

Would you please look over these solved cases?
| CHEM SMILES | ASSAY METRIC | DATA VALUE |
| --- | --- | --- |
| Cc1ccccc1NC(=O)Nc1ccc2c(-c3cnco3)c[nH]c2c1 | IC50 | 9700 |
| COc1cc(NC(=O)Nc2cccc(C)c2)ccc1-c1cnco1 | IC50 | 1000 |
| CN(C(=O)CN1CCOCC1)c1ccccc1-c1cnc(Nc2ccc3c(-c4cnco4)c[nH]c3c2)o1 | IC50 | 3000 |
| COc1cc(Nc2ncc(-c3ccccc3N(C)C(=O)CN3CCOCC3)o2)ccc1-c1cnco1 | IC50 | 590 |

P: CC(=O)OCC(=O)N(C)c1ccccc1-c1cnc(Nc2ccc3c(-c4cnco4)c[nH]c3c2)o1
Q: Cc1cccc(-c2cnc(Nc3ccc4c(-c5cnco5)c[nH]c4c3)o2)c1
Ask | Compare P and Q by numeric IC50 and name the larger one. Respond using the label that marks the chosen record.
Reply | Q
